Assay: first-order primary biodegradation rate constant k (sorption-corrected, fDis-corrected) (d-1); higher = faster biodegradation
Conditions: river segment: Greece (EL) G_Pris; incubation temperature 19 °C
Listed below: first-order primary biodegradation rate constant k values for each entry.
Could you respond with only the numeric value?

Worked cases, first-order primary biodegradation rate constant k given:
CC(C)NCC(O)COc1ccc(COCCOC(C)C)cc1 (stereo not drawn) [Bisoprolol] = 0.293
Cc1ccc(S(=O)(=O)O)cc1 [p-Toluenesulfonic acid] = 0.0811
C=CCOc1ccccc1OCC(O)CNC(C)C (stereo not drawn) [Oxprenolol] = 0.111
CC(C)c1ccc(NC(=O)N(C)C)cc1 [Isoproturon] = 0.111

Measured first-order primary biodegradation rate constant k, CCCCC1=NC2(CCCC2)C(=O)N1Cc1ccc(-c2ccccc2-c2nnn[nH]2)cc1 [Irbesartan] : 0.0725

Measured first-order primary biodegradation rate constant k, Cc1cc(O)cc(C)c1Cl [4-Chloro-3,5-dimethylphenol] : 3.52

Measured first-order primary biodegradation rate constant k, CC(C)(C#N)c1cc(Cn2cncn2)cc(C(C)(C)C#N)c1 [Anastrozole] : 0.133

Measured first-order primary biodegradation rate constant k, CNC(=C[N+](=O)[O-])NCCSCc1ccc(CN(C)C)o1 [Ranitidine] : 28.8

Measured first-order primary biodegradation rate constant k, Cc1ccc(-c2nc3ccc(C)cn3c2CC(=O)N(C)C)cc1 [Zolpidem] : 0.19

Measured first-order primary biodegradation rate constant k, CN(C)C(=O)Oc1cccc([N+](C)(C)C)c1 [Neostigmine] : 0.0309

Measured first-order primary biodegradation rate constant k, Cc1cc(C)nc(NS(=O)(=O)c2ccc(N)cc2)n1 [Sulfamethazine] : 0.729

Measured first-order primary biodegradation rate constant k, COc1cc(Cc2cnc(N)nc2N)cc(OC)c1OC [Trimethoprim] : 0.704

###

Assay: first-order primary biodegradation rate constant k (sorption-corrected, fDis-corrected) (d-1); higher = faster biodegradation
Conditions: river segment: Germany (DE) T_Pris; incubation temperature 24 °C
first-order primary biodegradation rate constant k of 0.3 or higher: YES. Under 0.3: NO.

Cc1cccc(Nc2ccccc2C(=O)O)c1C = NO
CC(C)NCC(O)COc1cccc2ccccc12 (centres undefined) = NO

Qu. # check: first-order primary biodegradation rate constant k of CCCCCCCCCCN is greater than or equal to 0.3
Ans. YES

Qu. # check: first-order primary biodegradation rate constant k of CC(C)NCC(O)c1ccc(NS(C)(=O)=O)cc1 (centres undefined) is greater than or equal to 0.3
Ans. NO

Qu. # check: first-order primary biodegradation rate constant k of CCCCc1nc(Cl)c(CO)n1Cc1ccc(-c2ccccc2-c2nnn[nH]2)cc1 is greater than or equal to 0.3
Ans. NO

Qu. # check: first-order primary biodegradation rate constant k of CNCCC(Oc1ccc(C(F)(F)F)cc1)c1ccccc1 (centres undefined) is greater than or equal to 0.3
Ans. YES

Qu. # check: first-order primary biodegradation rate constant k of CN(C)C(=N)NC(=N)N is greater than or equal to 0.3
Ans. NO

Qu. # check: first-order primary biodegradation rate constant k of Cc1ccc(C(C)NC(=O)[C@@H](NC(=O)OC(C)C)C(C)C)cc1 (some centres undefined) is greater than or equal to 0.3
Ans. NO

Qu. # check: first-order primary biodegradation rate constant k of CN(Cc1cnc2nc(N)nc(N)c2n1)c1ccc(C(=O)N[C@@H](CCC(=O)O)C(=O)O)cc1 [Methotrexate] is greater than or equal to 0.3
Ans. YES

Qu. # check: first-order primary biodegradation rate constant k of c1ccc2[nH]nnc2c1 is greater than or equal to 0.3
Ans. NO

Qu. # check: first-order primary biodegradation rate constant k of c1ccc([C@H]2CN3CCSC3=N2)cc1 is greater than or equal to 0.3
Ans. NO

Qu. # check: first-order primary biodegradation rate constant k of CO[C@@H]1[C@@H](OC(N)=O)[C@@H](O)[C@H](Oc2ccc3c(O)c(NC(=O)c4ccc(O)c(CC=C(C)C)c4)c(=O)oc3c2C)OC1(C)C is greater than or equal to 0.3
Ans. NO

Qu. # check: first-order primary biodegradation rate constant k of CC[C@@H](C(N)=O)N1CCCC1=O is greater than or equal to 0.3
Ans. NO
